system: CCRIS mutagenicity, Ames/micronucleus/aberration tests; experiment: CCRIS mutagenicity studies; settings: Test System: AMES SALMONELLA TYPHIMURIUM; Strain/Indicator: TA102; Metabolic Activation: NONE; Method: STANDARD PLATE
Activity calls are given as the source filed them. No rule for the calls is given here.
Answer with one of the outcomes active, inactive

How was `CCc1ccc(C)cc1` classified in this test?
inactive

How was O=C1C=C2C(=CCOC2O)O1 (centres undefined) classified in this test?
inactive

How was CCC(CCC(C)=O)COC(=O)CCCCC(=O)O (centres undefined) classified in this test?
inactive

How was `CN1CCN(c2ccc3nc(CCCCCCc4ccc5nc(-c6ccc(N(CCCl)CCCl)cc6)[nH]c5c4)[nH]c3c2)CC1` classified in this test?
inactive

How was `COC1=CC(=O)c2nc(C)c3c([nH]c4ccccc43)c2C1=O` classified in this test?
inactive

How was `CCCCN(N)CCCC` classified in this test?
inactive

How was `BrCCBr` classified in this test?
inactive

How was CC1(C)CC[C@]2(C(=O)O)CC[C@]3(C)C(=CC[C@@H]4[C@@]5(C)C[C@H](O)[C@H](O[C@@H]6O[C@H](CO)[C@@H](O)[C@H](O)[C@H]6O)C(C)(C(=O)O)C5CC[C@]43C)[C@H]2C1 (some centres undefined) classified in this test?
inactive

How was `O.O.O.O.O.O.O.[Cl-].[Cl-].[Cl-].[Fe+3]` classified in this test?
inactive

How was `Cn1cnc2c1c(=O)[nH]c(=O)n2C` classified in this test?
inactive

How was `Cc1cc(=O)n(-c2ccccc2)n1C` classified in this test?
inactive

How was `F` classified in this test?
inactive

How was `CNc1ncn(C)c1C(=O)N(C)N=O` classified in this test?
active

How was `Cn1c2ccccc2c2nn[n+]([O-])c(C(=O)OCCCl)c21` classified in this test?
inactive

====

system: CCRIS mutagenicity, Ames/micronucleus/aberration tests; experiment: CCRIS mutagenicity studies; conditions: Test System: UDS RAT HEPATOCYTES; Strain/Indicator: THY INCORP; Metabolic Activation: NONE
The source made the active and inactive calls. How the calls were made is not given here.
Answer with one of the outcomes t for active, f for inactive

How was CCCCCCCCC1CO1 (stereo not given) classified in this test?
f

How was `O=[N+]([O-])C1CCCCC1` classified in this test?
t

How was `C=Cc1ccccn1` classified in this test?
f

How was `[Cl][Sn][Cl]` classified in this test?
f

How was `CCC(CC)[N+](=O)[O-]` classified in this test?
t

====

tested on: CCRIS mutagenicity, Ames/micronucleus/aberration tests; experiment: CCRIS mutagenicity studies; settings: Test System: AMES SALMONELLA TYPHIMURIUM; Strain/Indicator: TA100; Metabolic Activation: RAT, LIVER, S-9, PHENOBARBITAL; Method: STANDARD PLATE
Active and inactive are the calls of the source. The rule behind the calls is not given here.
Answer with one of the outcomes true (active), false (inactive)

How was COc1c2ccoc2nc2c(OC)c(OCC3OC3(C)C)ccc12 (stereo not given) classified in this test?
false

How was C1=CC2OC2C=CO1 (stereo not given) classified in this test?
false

How was `COc1cc(Cc2cnc(N)nc2N)cc(OC)c1OC` classified in this test?
false

How was `COc1ccc2cc([C@H](C)C(=O)O)ccc2c1` classified in this test?
false

How was C=C(C)C1Cc2c(cc(O)c3c(=O)c4ccccc4n(C)c23)O1 (stereo not given) classified in this test?
true
